# system: T1, rat NGF (rat, UniProt P25427 122-241)
# T1 construct: also called rN
# T1 sequence (P25427 122-241 limits assumed): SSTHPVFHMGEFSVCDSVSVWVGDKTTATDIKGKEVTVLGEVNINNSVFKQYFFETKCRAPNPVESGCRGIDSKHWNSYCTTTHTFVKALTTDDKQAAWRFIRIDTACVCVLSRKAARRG
# test-details: SPR (Biacore T200), 100 nM mAb on NGF chip, similarity to parent mAb
quantity-name: Percent Similarity Score (KD on rN) (%)

1. can9L12VH_S30A (antibody, V domains shown) VH: EVQLVESGGDLVKPGGSLRLSCVASGFTFASHGMHWVRQSPGKGLQWVAVINSGGSSTYYTDAVKGRFTISRDNAKNTVYLQMNSLRAEDTAMYYCAKESVGGWEQLVGPHFDYWGQGTLVIVSS VL: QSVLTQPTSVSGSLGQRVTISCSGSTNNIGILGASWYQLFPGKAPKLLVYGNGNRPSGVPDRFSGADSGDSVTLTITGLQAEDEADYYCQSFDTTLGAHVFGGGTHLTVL :: 99.9
2. can9L12VL_G33A (antibody, V domains shown) VH: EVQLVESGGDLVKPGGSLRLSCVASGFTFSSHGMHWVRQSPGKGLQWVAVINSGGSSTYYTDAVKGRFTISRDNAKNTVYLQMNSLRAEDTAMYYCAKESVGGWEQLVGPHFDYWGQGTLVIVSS VL: QSVLTQPTSVSGSLGQRVTISCSGSTNNIGILAASWYQLFPGKAPKLLVYGNGNRPSGVPDRFSGADSGDSVTLTITGLQAEDEADYYCQSFDTTLGAHVFGGGTHLTVL :: 2.9
3. can9L12VH_V108A (antibody, V domains shown) VH: EVQLVESGGDLVKPGGSLRLSCVASGFTFSSHGMHWVRQSPGKGLQWVAVINSGGSSTYYTDAVKGRFTISRDNAKNTVYLQMNSLRAEDTAMYYCAKESVGGWEQLAGPHFDYWGQGTLVIVSS VL: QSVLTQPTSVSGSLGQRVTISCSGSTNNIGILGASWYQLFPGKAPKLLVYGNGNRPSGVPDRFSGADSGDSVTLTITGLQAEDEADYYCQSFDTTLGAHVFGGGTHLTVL :: 62
